# assayed_system: UniProtKB P28335
# Sequence (P28335 33-458): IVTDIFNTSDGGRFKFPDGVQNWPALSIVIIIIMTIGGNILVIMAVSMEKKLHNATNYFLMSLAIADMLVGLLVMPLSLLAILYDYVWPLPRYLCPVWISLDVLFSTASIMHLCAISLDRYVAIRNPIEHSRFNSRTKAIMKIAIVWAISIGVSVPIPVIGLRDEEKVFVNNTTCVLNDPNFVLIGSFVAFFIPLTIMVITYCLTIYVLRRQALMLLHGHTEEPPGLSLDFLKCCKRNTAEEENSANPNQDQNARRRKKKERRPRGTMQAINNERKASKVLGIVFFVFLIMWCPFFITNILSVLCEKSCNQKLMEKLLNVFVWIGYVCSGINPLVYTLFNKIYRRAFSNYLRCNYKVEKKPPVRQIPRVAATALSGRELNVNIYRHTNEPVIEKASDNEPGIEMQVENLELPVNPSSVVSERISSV
# assay_protocol: Human 5-HT2C functional high throughput screening assay in CHO-K1 cells (calcium flux)
# Assay type: cell-based
# Design: expressed in transfected cells; host or cells: CHO-K1 cells
# condition_notes: 5-HT2C agonist activity; CHO-K1 cells; calcium flux; read-out: EC50
assay_metric: EC50 (nM)

INSERT INTO measurements (molecule, assay_result) VALUES
  ('CN1C[C@@H]2CNC(=O)c3cc(OCc4cccc(F)c4F)ccc3[C@H]2C1', 0.9),
  ('O=C1NC[C@@H]2CN(Cc3ccccc3)C[C@H]2c2ccc(-c3ccc(F)cc3)cc21 (relative stereo)', 40),
  ('CN1C[C@@H]2CNC(=O)c3cc(OCc4ccc(F)c(F)c4)ccc3[C@H]2C1', 2),
  ('Cc1cc(C)c(S(=O)(=O)N2Cc3cccnc3[C@@H]3CNC[C@H]3C2)c(C)c1 (relative stereo)', 200);
